Where these numbers come from: the supplement of paper PMC12764529

# test method notes: folding stability dG unfold from trypsin proteolysis; higher = more stable
Note: every record was labeled by where its folding stability dG unfold sits among bucket 1 = under 0.6 kcal/mol, bucket 2 = from 0.6 kcal/mol up to 2 kcal/mol, bucket 3 = 2 kcal/mol and over

{"sequence entry": "SAGGSFEFKAEVFYDKEKDIYYVKIPYILKNTGKIIPIVKKVKAGDPIPVEKLAEKIAKELEELGISAGGSA [r2_221_TrMRF]", "assigned label": "bucket 1"}
{"sequence entry": "SFTPEQVKDIAKTIANRMYDNGYEVEVDVEVEPVNNMPYVEIEFEWRDPDGQPWKFEIIIHPDGDIEIYPSA [r9_1027_TrROS]", "assigned label": "bucket 2"}
{"sequence entry": "SAGGSAGGSAGGHIVIPNKRWYIQFPNGKPIGEHRFDTAEDIAKELPPNMRIVPPGDPISAGGSAGGSAGGS [r10_310_TrROS]", "assigned label": "bucket 1"}
{"sequence entry": "SAGGGIEREVAPDEVVEIPIVRIEGDVAREETIEIRLPAGARIEPSGDKIRLWFPEEGKVLEIPLTELSAGG [r13_275_TrMRF]", "assigned label": "bucket 1"}
{"sequence entry": "SAEVRTVTDANGTQRTVTKTPDGTETVTTRPVPAPPPPPTVTVEVEYDAENGTLTVRLPDGSKLEFTFEDSA [r9_56_TrROS_Hall]", "assigned label": "bucket 1"}
{"sequence entry": "SAGGSAKITIKPGETITITIKLENGETVEIRMRVEELPDGTYKITMEITYPDGSKIEMELTLKIKPSAGGSA [r15_476_TrROS_Hall]", "assigned label": "bucket 3"}
{"sequence entry": "SAGGSMTIKINGAEITDIEVRDDGTIRIKVRVTNENGEEVEVTLEIRIEPAPPVEVVHPDDPEALESAGGSA [r2_368_TrROS_Hall]", "assigned label": "bucket 3"}
{"sequence entry": "SAGGSAGGSGPVLLVRVRPDGTREILDVLPPDEPVENLPAGEFREFRLIPTESLEDALRKALASAGGSAGGS [r12_452_TrMRF]", "assigned label": "bucket 1"}
{"sequence entry": "SFGMIEIENEAFLPDGFRFKVEVWVMVDPDNGNLMIMLDIEIEPIPPPPPPPEPKPVKDKNGDWKPANDMSA [r9_898_TrROS]", "assigned label": "bucket 2"}
{"sequence entry": "SAGGSAEIWIWMPYDMIESLAKKAGDPNVKVEPVEPPDDNPGEPYWFKITLKDNGKPKREIEFWFPSAGGSA [r15_428_TrROS]", "assigned label": "bucket 2"}
{"sequence entry": "SAGGSAGGSAGGSPPTAKELVKELREKFPPGYPITIKHPDKTIRIMMNPGPGKFQVEIYSAGGSAGGSAGGS [r4_150_TrROS]", "assigned label": "bucket 1"}
{"sequence entry": "SAGGSLVYRLVLRRGDKVLVVTAPFDSPSDALAAASRLLPGGAELLLEFFDPRTGEPLGTVPFRSVSAGGSA [r2_390_TrMRF]", "assigned label": "bucket 3"}
{"sequence entry": "SAGGMPLDSPEVQRRLAALKEALAKAEALREAGLEVKVVSIEFDPETREVTIEVEVRPAPPPPPEEPSAGGS [r8_277_TrROS_Hall]", "assigned label": "bucket 2"}
{"sequence entry": "SAGMTLKEEEFELPDGSRRIRLTFTSEEELAAKLKELGFEKFNPLSPSESVDVTIPPDGVLSESLPKEGSAG [r5_941_JUSTAS]", "assigned label": "bucket 2"}
{"sequence entry": "SAGGSKFEVEKLPDNTYRFKVPNENGETLEITVEKLPDGAILVTHPSNPKPVLFPASTTIEDLLKKSAGGSA [r2_338_TrMRF]", "assigned label": "bucket 2"}
{"sequence entry": "SAGGSAGGSELSDEEIEALRKPPKVRIRVEIVYPDGTVEEREFSSLEEALAAAKERNVTVKILSAGGSAGGS [r12_244_TrROS_Hall]", "assigned label": "bucket 3"}
{"sequence entry": "SVKIKINWQRDPEDGRLYLMIEYRFEDDPQQAIEEIKDILERFGFKVPEIESITVDPGNGEITIPIRIPWSA [r9_876_TrROS]", "assigned label": "bucket 3"}
{"sequence entry": "SAGGSAGGMIYADNPEEFKKVVKELLKKHPKNKPVFAVLTGSNSKYVIYLSGDKLEKVLAFPVPSAGGSAGG [r6_288_TrMRF]", "assigned label": "bucket 2"}
{"sequence entry": "SAGGSAGGSAGKLYIIRIKGKKIILSEDEVEKLKKKYPNAEIIPFKSKEDAEKALKKLKESAGGSAGGSAGG [r11_60_TrROS_Hall]", "assigned label": "bucket 3"}
{"sequence entry": "SAGGSASYSSLKITIIDTGTTTTVPPGATTTPTVVKLPDNKTAIITTTTPPDGTTATTVELFDNDKSAGGSA [r15_559_JUSTAS]", "assigned label": "bucket 1"}
{"sequence entry": "SAGGSAKVKIEFFQMPPGGNPRDMQKKAQDKGDIFIIVNKPGWMIVITADDPEDANTIAKEILEEFSAGGSA [r15_546_TrROS]", "assigned label": "bucket 2"}
{"sequence entry": "SAGGSAGETVYRVKIRVNGEELEIEVSAEELEALKALPGLEIELVRVEPAPPPEREETVVPEEEEESAGGSA [r15_443_TrROS_Hall]", "assigned label": "bucket 3"}
{"sequence entry": "SAGGPMRRVKVEIKDPDGGKIEIDDVYVPDNSVWAKIFLPDLGREIPFPFDTPDQAVEWIKDFVLQLSAGGS [r16_736_TrROS]", "assigned label": "bucket 1"}
{"sequence entry": "SAGGSSSSMVVVTLTFPPDVSPEEVIEKIAATPGVGAQPISYDPATGTFTIRVGSTDPKAVEEVLGSAGGSA [r2_305_JUSTAS]", "assigned label": "bucket 2"}
{"sequence entry": "SAGGSAGGMNPTVTPVEVDVGDKPLTVFLFGDGTALVLFPDGGLAGAPVGTPDDRPVNLAIIGPSAGGSAGG [r6_239_TrMRF]", "assigned label": "bucket 2"}
